Herbicidal effect rating, ORYSAT values, listed per item
System: ORYZA SATIVA, L. TEBONNET
Assay procedure: Rice tolerance to post-transplant applications under flooded paddy conditions, ORYSAT (Rice, Tebonnet)
Type: in vivo
Settings: 0.250 kg/ha, post-transplant rice, 3-4 weeks after treatment
Description: Results of herbicide evaluation are expressed on a rating scale (0-9). The scale is based upon a visual observation of plant stand, vigor, malformation, size, chlorosis and overall plant appearance as compared with a control. The tolerance of transplanted rice to post-transplanted herbicide applications is determined as follows: two ten-day-old rice seedlings (CV. Tebonnet) are transplanted into a silt loam soil in 32 oz. plastic containers with a diameter of 10.5 cm and no drainage holes. […]

Worked examples follow.
Recorded result, "COC(=O)Cn1c(=O)n(C)c(=O)n(-c2cc(Oc3ccc(Cl)cc3Cl)ccc2Br)c1=O" , Herbicidal effect rating, ORYSAT: 4.0

What the record says about "COC(=O)Cn1c(=O)n(C)c(=O)n(-c2cc(Oc3cccc(Cl)c3Cl)ccc2[N+](=O)[O-])c1=O" : Herbicidal effect rating, ORYSAT is 0.0

The compound identified as "COC(=O)Cn1c(=O)n(C)c(=O)n(-c2cc(Oc3c(F)cc(C(F)(F)F)cc3Cl)ccc2[N+](=O)[O-])c1=O" registered its Herbicidal effect rating, ORYSAT at 7.0

Notebook: "Cn1c(=O)n(CC(=O)OC(C)(C)C)c(=O)n(-c2cc(Oc3ccc(C(F)(F)F)cc3Cl)ccc2Cl)c1=O" , Herbicidal effect rating, ORYSAT read as 1.5

# Herbicidal effect rating, ORYSAT (compound: "COC(=O)Cn1c(=O)n(C)c(=O)n(-c2cc(Oc3ccc(Cl)cc3F)ccc2[N+](=O)[O-])c1=O" ) is 3.0

More entries:
Measured Herbicidal effect rating, ORYSAT of "COC(=O)Cn1c(=O)n(C)c(=O)n(-c2cc(Oc3c(Cl)cc(Cl)cc3Cl)ccc2[N+](=O)[O-])c1=O" : 3.0

Per the records, this compound ( "COC(=O)Cn1c(=O)n(CC(=O)OC)c(=O)n(-c2cc(Oc3ccc(Cl)cc3Cl)ccc2[N+](=O)[O-])c1=O" ) has Herbicidal effect rating, ORYSAT equal to 1.0
